assay: PSAC antagonists in infected red cells, primary screen, cell-based, P. falciparum Indochina, OD700, 2 h (AID 1155);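 further: lysis reports solute entry through the parasite surface anion channel PSAC; channel blockers reduce lysis of infected cells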; conditions: P. falciparum Indochina infected erythrocytes, osmotic lysis OD700; higher = more signal, called active from +8 up or from −8 down
Consider the following partition of reported z-score into named classes: bucket A: < 0.5; bucket B: ≥ 0.5 and < 2; bucket C: ≥ 2

| molecule | cat |
| --- | --- |
| CC(C)(C)OC(=O)CC[C@]1(C(N)=O)N=C(c2ccc(OCCCO)cc2)O[C@H]1c1ccccc1N=[N+]=[N-] | bucket C |
| O=C1NC(=O)C2C1C=CC(C(O)C(O)CO)N2Nc1ccccn1 (configuration not stated) | bucket A |
| C=C(C(=O)CC[C@@H](OC(=O)c1ccccc1-c1ccccc1C(=O)O)c1cccc(OCCO)c1)C(C)C | bucket A |
| C=CCNC(=O)[C@H]1[C@@H]2C(=O)O[C@@H](c3ccccc3)[C@@H](c3ccccc3)N2[C@@H](c2ccc(OCCO)cc2)[C@]12C(=O)N(C(=O)OCCOC)c1ccc(C#CCC(C(=O)OC)C(=O)OC)cc12 | bucket B |
| COc1ccc(C(=O)Nc2ccc(CN3C(=O)[C@@]4(O[C@@H](CC(=O)N(CCO)Cc5ccccc5)[C@H]([Si](C)(C)c5ccc(OC)cc5)[C@H]4C)c4ccccc43)cc2)cc1 | bucket C |
| CCCCN1CC=CC23O[C@@H]4C=CCCOC(=O)C4[C@H]2C(=O)N(CCO)[C@@H]3C1=O (some centres not stated) | bucket A |
| COc1ccc(NN2C(C(O)c3ccc(F)cc3)C=CC3C(=O)N(C4CCCCC4)C(=O)C32)cc1 (configuration not stated) | bucket B |
| C=CCOC(=O)[C@@H]1[C@H]2C(=O)O[C@H](c3ccccc3)[C@H](c3ccccc3)N2[C@H](c2ccc(OCCOC(=O)[C@@H]3C[C@@H]4C(=O)N[C@@H](CC(C)C)C(=O)N4[C@@H]3c3ccc(O)cc3)cc2)[C@@]12C(=O)Nc1ccc(I)cc12 | bucket B |
| COC(=O)[C@@]1(Cc2ccc(OC)cc2)[C@@H]2[C@@H](CC(=O)[C@H]2CC(=O)C(=O)N(C)C)CN1C(=O)c1ccccc1 | bucket B |
| O=C1N(Cc2ccccc2)c2ccccc2C[C@@]12N=C(c1ccc(OCCCO)cc1)O[C@H]2c1ccccc1 | bucket C |
| COc1ccc(CCNC(=O)[C@@H]2c3ccccc3C(=O)N(C(C)C)[C@H]2c2ccc(CO)cc2)cc1 | bucket B |
| CC[C@@H](O[Si](C#C[Si](C(C)C)(C(C)C)C(C)C)(C(C)C)C(C)C)c1cn(Cc2cccc(Cl)c2)nn1 | bucket B |
| C[C@]1(C(=O)O)c2ccccc2C(=O)N(Cc2cc(C(F)(F)F)cc(C(F)(F)F)c2)[C@H]1c1ccc(CO)cc1 | bucket A |
| CN(C)CCCCNC(=O)[C@H]1C[C@H]2C(=O)N[C@@H](CCCCN(C)C)C(=O)N2[C@H]1c1ccc(O)cc1 | bucket A |
